B1: EHEE_rd2_0601 (parent)
chain: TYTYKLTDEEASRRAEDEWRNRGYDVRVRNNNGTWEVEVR

- Variants of: B1
- assay-procedure: folding stability dG (cDNA display proteolysis); higher = more stable
- experimental-context: PBS, room temperature
Assign Condition met to entries whose folding stability dG meets or exceeds 6 kJ/mol; assign Condition not met to the rest.

D17H = Condition met
E10C = Condition met
R13L = Condition not met
E36A = Condition not met
N21S = Condition met

Q: Is it the case that N32E has folding stability dG reaching or exceeding 6 kJ/mol?
Ans: Condition not met

Q: Try the variant V28R
Ans: Condition not met

Q: Try the variant D25Q
Ans: Condition met

Q: Try the variant T7E
Ans: Condition met

Q: Try the variant N32Y
Ans: Condition not met

Q: Try the variant R13M
Ans: Condition not met

Q: Try the variant Y24A
Ans: Condition not met

Q: Try the variant N21V
Ans: Condition not met

Q: Try the variant D25M
Ans: Condition not met

Q: Try the variant E36L
Ans: Condition met

Q: Try the variant D17V
Ans: Condition met

Q: Try the variant R40E
Ans: Condition not met

Q: Try the variant R20Q
Ans: Condition not met

Q: Try the variant R27F
Ans: Condition met

Q: Try the variant Y4N
Ans: Condition not met

Q: Try the variant N30W
Ans: Condition met

Q: Try the variant V28G
Ans: Condition not met

Q: Try the variant E18R
Ans: Condition not met

Q: Try the variant D8G
Ans: Condition not met
